Each record here notes measured TGI.
# System: LOX IMVI melanoma
# method-description: NCI tumour cell line growth inhibition, 48 h
assay-metric: TGI

>>> observed_result("Cc1c(-c2c(C)c3ccccc3n2S(=O)(=O)c2ccccc2)n(S(=O)(=O)c2ccccc2)c2ccccc12")
"> 100 µM"
>>> observed_result("O=c1c2ccccc2[nH]c(=S)n1-c1ccc(Br)cc1")
"> 100 µM"
>>> observed_result("CCOc1cc2ncc(C#N)c(Nc3ccc(OCc4cccc(F)c4)c(Cl)c3)c2cc1NC(=O)CC1CCSS1 (stereo not given)")
"1.01 µM"
>>> observed_result("CCC(CCCN)Nc1cc(OC)cc2cccnc12 (stereo not given)")
"> 100 µM"
>>> observed_result("O=c1oc2cc(OS(=O)(=O)c3ccc(F)cc3)ccc2c2c1CCCCC2")
"> 100 µM"

----------
# Tested on: IGROV1 ovarian
# method-description: NCI tumour cell line growth inhibition, 48 h
assay-metric: TGI (µM)

>>> observed_result("COC(=O)C12Oc3ccc(-c4ccc5c(c4O)C(=O)C4=CCC(C)C(O)C4(C(=O)OC)O5)c(O)c3C(=O)C1=CCC(C)C2O (stereo not given)")
3.81
>>> observed_result("COc1ccc2cc(C(=O)/C=C/c3cc(OC)c(OC)c(OC)c3)ccc2c1")
18.5
>>> observed_result("CC(C)C[C@H](NC(=O)[C@H](Cc1cccc2ccccc12)NC(=O)N1CCOCC1)B(O)O")
0.0485

----------
# Test system: LOX IMVI melanoma
# method-description: NCI tumour cell line growth inhibition, 48 h
Where a SMILES comes first, the peptide text is derived from it. [ ]: non-standard residue; d: D form. The star is where a group is joined. ξ: configuration not given here. ξF = NC(Cc1ccccc1)C(=O)O; Cbz = O=C(OCc1ccccc1)*; Aib = CC(C)(N)C(=O)O
Each record here notes measured TGI.
assay-metric: TGI

>>> observed_result("COc1cccc(C2CC(C)(N3CCCC3)Oc3cc4c(cc32)OCO4)c1O (stereo unspecified)")
"> 94.5 µM"
>>> observed_result("CS(=O)(=O)CCNCc1nc(-c2ccc3ncnc(Nc4ccc(F)c(Cl)c4)c3c2)cs1")
"> 25 µM"
>>> observed_result("O=C1C(=O)N(C(=O)c2ccc(Cl)c(Cl)c2)c2ccccc21")
"> 100 µM"
>>> observed_result("C=CCC(C)C12CCNC(Cc3ccc(O)cc31)C2C (stereo unspecified)")
"> 100 µM"
>>> observed_result("COc1ccc2c3c1OC1CC(O)C=CC31CCN(C)C2 (stereo unspecified)")
"> 150 µM"
>>> observed_result("O=C1CC(O)C=C1Nc1ccc(Cl)cc1 (stereo unspecified)")
"> 100 µM"
>>> observed_result("CSc1nc(NC2CCCC2)c2cc[nH]c2n1")
"> 100 µM"
>>> observed_result("COc1cc(-c2nn(-c3ccc(NC(=O)c4ccc(Cl)c(Cl)c4)cc3)cc2-c2ccncc2)ccc1Cl")
"> 100 µM"
>>> observed_result("Cc1ccc(N=Nc2c(C)nn(C(=O)CC(=O)Nc3ccccc3)c2C)cc1C")
"> 100 µM"
>>> observed_result("Cc1ccc(CNc2c3ccccc3nc3ccccc23)cc1")
"2.84 µM"
>>> observed_result("CC(C)(NC(=O)OCc1ccccc1)C(=O)NC(Cc1ccccc1)C(=O)O (stereo unspecified) (Cbz-[Aib]-[ξF]-OH)")
"> 100 µM"

----------
# Test system: SF-268 CNS
# method-description: NCI tumour cell line growth inhibition, 48 h
assay-metric: TGI

>>> observed_result("CCCCOC(=O)C(=O)C(CCC(=O)c1ccc(C)cc1)C(=O)C=C(C)C (centres undefined)")
"> 100 µM"
>>> observed_result("COc1ccc2[nH]c3c(c2c1)CCN(C)CC3")
"> 100 µM"
>>> observed_result("O=C(c1ccc(Cl)cc1)c1ccc(OCC(=O)N2CCN(c3ccccc3)CC2)cc1")
"> 100 µM"
>>> observed_result("COc1cccc(C2CC(C)(N3CCCC3)Oc3cc4c(cc32)OCO4)c1O (centres undefined)")
"> 92.1 µM"
>>> observed_result("O=c1c2ccccc2[nH]c(=S)n1-c1ccc(Br)cc1")
"> 100 µM"
>>> observed_result("CCNC(=O)Nc1cccc(C)n1")
"> 100 µM"
>>> observed_result("CC(=O)Nc1ccc2c(c1)c(C1=C(c3cn(C)c4ccccc34)C(=O)NC1=O)cn2C")
"> 25 µM"
>>> observed_result("ClCc1cccc(Cn2cnc3c(Cl)ncnc32)c1")
"15.3 µM"
>>> observed_result("Cc1cnc2c(C)ccc([N+](=O)[O-])c2c1NCCCN(C)C")
"> 100 µM"
>>> observed_result("O=C(NCCN(CCNC(=O)c1cccc(=O)n1O)CCN(CCNC(=O)c1cccc(=O)n1O)CCNC(=O)c1cccc(=O)n1O)c1cccc(=O)n1O")
"> 100 µM"
>>> observed_result("CC(=O)NCCCCNCCCNC(C)=O")
"> 100 µM"
>>> observed_result("O=C(CNc1nncs1)NO")
"> 100 µM"
>>> observed_result("CCOC(=O)/C(O)=C1\\C(=O)N(C)C(=O)C1c1ccc(OC)c(OC)c1 (centres undefined)")
"> 100 µM"
>>> observed_result("CCOc1ccccc1NC(=O)C(=O)CC(=O)c1c(C)n([O-])c2ccccc2[n+]1=O")
"> 100 µM"
>>> observed_result("Cc1c(-c2c(C)c3ccccc3n2S(=O)(=O)c2ccccc2)n(S(=O)(=O)c2ccccc2)c2ccccc12")
"> 100 µM"
>>> observed_result("CCc1cccc(C(C)C)c1NC(=O)C(=O)C(Cc1nc2ccccc2[nH]c1=O)C(=O)OC (centres undefined)")
"> 100 µM"
>>> observed_result("C=C1C(=O)O[C@H]2[C@H]1CC/C(Cn1cc(CNC(=O)Cc3cn(C(=O)c4ccc(Cl)cc4)c4ccc(OC)cc34)nn1)=C\\CC[C@@]1(C)O[C@@H]21")
"3.52 µM"
>>> observed_result("COc1cc2c3cc1Oc1c(O)c(OC)cc4c1[C@H](Cc1ccc(cc1)Oc1cc(ccc1O)C[C@H]3N(C)CC2)N(C)CC4")
"47.3 µM"
>>> observed_result("O=C(O)CSc1n[nH]c(-c2ccc(O)cc2)n1")
"> 100 µM"

----------
# System: NCI-H23 lung
# method-description: NCI tumour cell line growth inhibition, 48 h
Where a SMILES comes first, the peptide text is derived from it. [ ]: non-standard residue; d: D form. The star is where a group is joined. Phe(4-NO2) = N[CH](Cc1ccc([N+](=O)[O-])cc1)C(=O)O; Boc = CC(C)(C)OC(=O)*; OBn = c1ccc(CO*)cc1
assay-metric: TGI

>>> observed_result("COc1ccc(N2C=Nn3c(nc4sc(C)c(C)c4c3=O)C2)cc1")
"> 100 µM"
>>> observed_result("O=C(CNc1nncs1)NO")
"> 100 µM"
>>> observed_result("c1ccc(CNc2c3c(nc4ccccc24)CCC3)cc1")
"46.2 µM"
>>> observed_result("Cc1cn(C2CC(n3cc(Cn4cc(F)c(=O)[nH]c4=O)nn3)C(CO)O2)c(=O)[nH]c1=O (stereo unspecified)")
"> 100 µM"
>>> observed_result("COc1cc(/C(C#N)=C/c2ccc3c(c2OC)OCO3)cc2c1OCO2")
"11.6 µM"
>>> observed_result("O=[N+]([O-])c1cccc(-c2csc(N=Nc3c(O)[nH]c4ccccc34)n2)c1")
"> 100 µM"
>>> observed_result("O=[N+]([O-])c1ccc(C(c2c[nH]c3ccccc23)c2c[nH]c3ccccc23)cc1")
"21.4 µM"
>>> observed_result("CC(=O)C1CC(C)=CCC12C(=O)Nc1ccccc12 (stereo unspecified)")
"> 100 µM"
>>> observed_result("COC(=O)N[C@H]1CCc2c(Br)c(OC)c(OC)c(OC)c2-c2ccc(SC)c(=O)cc21")
"18.5 µM"
>>> observed_result("CC(=O)O/C=C(/C=C/OC(C)=O)C(C/C=C(\\C)C#CC=C(C)C)OC(C)=O (stereo unspecified)")
"> 100 µM"
>>> observed_result("CC1=NOC2(C1)/C(=N/O)CCC/C2=N\\O (stereo unspecified)")
"> 100 µM"
>>> observed_result("Cc1c2c(nn1-c1ccc(S(=O)(=O)NC(=S)Nc3ccccc3)cc1)-c1ccccc1CC2")
"> 50 µM"
>>> observed_result("COc1ccc2c3c1OC1CC(O)C=CC31CCN(C)C2 (stereo unspecified)")
"> 150 µM"
>>> observed_result("C=CC[C@H]1[C@@H](O[Si](C)(C)C(C)(C)C)[C@H](n2ccc(=O)[nH]c2=O)O[C@@H]1CO[Si](C)(C)C(C)(C)C")
"5.93 µM"
>>> observed_result("CCOC(=O)[C@@]1(C)C=C2O[C@@H]3OC4(CCCCC4)O[C@@H]3C2=C2C(O)=CC=C(O)[C@]21C(=O)OC")
"> 68 µM"
>>> observed_result("Cc1ccc(C)n2c1nc1ccc3ccccc3c12")
"> 100 µM"
>>> observed_result("O=C1C(=O)N(C(=O)c2ccc(Cl)c(Cl)c2)c2ccccc21")
"> 100 µM"
>>> observed_result("CC(C)(CO)CNc1cc(=O)[nH]c(N)n1")
"> 100 µM"
>>> observed_result("Cc1cnoc1NC1=CC(=O)C(=O)c2ccccc21")
"32.7 µM"
>>> observed_result("CC(C)Oc1c(-c2c(OC(C)C)c(=O)c2=O)c(=O)c1=O")
"> 75.6 µM"
>>> observed_result("CCC1C(=O)C[C@H]2[C@@H]3C(O)CC4=CC(=O)CC[C@]4(C)[C@H]3CC[C@]12C (stereo partly specified)")
"> 50 µM"
>>> observed_result("COC(=O)CCC(NC(=O)OC(C)(C)C)C(=O)NC(Cc1ccc([N+](=O)[O-])cc1)C(=O)NCC(=O)OCc1ccccc1 (stereo unspecified) (Boc-Glu(OMe)-[Phe(4-NO2)]-Gly-OBn; configuration not given here)")
"> 100 µM"
>>> observed_result("CC(=O)Oc1ccc(/C=C/C(=O)O[C@@H](C)[C@H](C)OC(=O)/C=C/c2ccc(OC(C)=O)c(OC(C)=O)c2)cc1OC(C)=O")
"25.8 µM"
>>> observed_result("O=c1oc2cc(OS(=O)(=O)c3ccc(F)cc3)ccc2c2c1CCCCC2")
"> 100 µM"
>>> observed_result("O=C(CCCCCCSc1nc(-c2ccccc2)cc(-c2ccc(Cl)cc2)n1)NO")
"5.13 µM"
>>> observed_result("Oc1ccc(Cl)cc1C1=N/C(=N\\CN2CCN(C/N=C3/N=C(c4cc(Cl)ccc4O)CC(c4ccccc4)N3)CC2)NC(c2ccccc2)C1 (stereo unspecified)")
"> 100 µM"
>>> observed_result("CN(C)c1ccc(/C=N/Nc2nc3ccccc3c(=O)n2-c2ccccc2)cc1")
"> 100 µM"
>>> observed_result("CN(C)c1cccc2c(S(=O)(=O)N[C@H]3CC[C@H]4[C@@H]5CCc6cc(O)ccc6[C@H]5CC[C@]34C)cccc12")
"22 µM"
>>> observed_result("Cc1ccc2c(=O)cc(-c3csc4ccccc34)[nH]c2n1")
"2.51 µM"
>>> observed_result("O=C1CC(O)C=C1Nc1ccc(Cl)cc1 (stereo unspecified)")
"> 100 µM"
>>> observed_result("COc1ccc(N[C@H](CS(=O)c2ccc(C)cc2)c2ccc(F)cc2)cc1 (stereo partly specified)")
"> 100 µM"
